The reported numbers originate from ChEMBL document CHEMBL1123825.

Non-standard residues stand in square brackets, D forms with d. Residues, ends and D or L forms follow the SMILES beside them. ξ: configuration not given here. Met(O) = CS(=O)CC[C@H](N)C(=O)O; ξA = CC(N)C(=O)O; Sar = CNCC(=O)O
Assay read-out pIC50; system under study: Mu-type opioid receptor (Cavia porcellus, UniProt P97266).
Sequence (P97266 whole entry): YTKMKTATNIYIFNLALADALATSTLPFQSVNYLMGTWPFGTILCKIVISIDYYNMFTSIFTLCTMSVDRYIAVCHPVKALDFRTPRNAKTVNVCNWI
Lab note: report pIC50 as minus log10 of the concentration in molar units, number only.

INSERT INTO results (compound, obs_value) VALUES
  ('COC(=O)CN(C)C(=O)[C@H](Cc1ccccc1)NC(=O)[C@H](CC[S+](C)[O-])NC(=O)[C@@H](N)Cc1ccc(O)cc1 (stereo not given in full) (H-Y[Met(O)]F[Sar]-OMe)', 8.22),
  ('CN(CC(N)=O)C(=O)[C@H](Cc1ccccc1)NC(=O)[C@H](CC[S+](C)[O-])NC(=O)[C@@H](N)Cc1ccc(O)cc1 (stereo not given in full) (H-Y[Met(O)]F[Sar]-NH2)', 8.22),
  ('COC(=O)CNC(=O)[C@H](Cc1ccccc1)NC(=O)[C@H](CC[S+](C)[O-])NC(=O)[C@@H](N)Cc1ccc(O)cc1 (stereo not given in full) (H-Y[Met(O)]FG-OMe)', 8.30),
  ('CC(NC(=O)[C@H](Cc1ccccc1)NC(=O)[C@H](CC[S+](C)[O-])NC(=O)[C@@H](N)Cc1ccc(O)cc1)C(=O)O (stereo not given in full) (H-Y[Met(O)]F[ξA]-OH)', 6.92);

Next, consider the following compound.
Qu. # query: pIC50 of entry C[S+]([O-])CC[C@H](NC(=O)[C@H](Cc1ccc(O)cc1)N=C(N)N)C(=O)N[C@@H](Cc1ccccc1)C(=O)NCC(N)=O (stereo not given in full)
Ans. 8.30
